# Tested on: Virginia dayflower
# EXPERIMENT_SUMMARY: Test F preemergence test
# Assay type: in vivo, Commelina virginica
# SETTINGS: Preemergence; 31 g ai/ha; scale 0 to 100
Each item that follows carries a reported Plant response rating, Dayflower.
// print number alone

Past entries and their recorded results:
INSERT INTO results (compound, result) VALUES
  ('Cc1cc([S+]([O-])Cc2c(C(F)(F)F)nn(C)c2OCC(F)(F)F)[n+]([O-])cc1Cl (stereo not drawn)', 100),
  ('CC(Oc1c(C[S+]([O-])c2ccc(Cl)c[n+]2[O-])c(C(F)(F)F)nn1C)C(F)(F)F (stereo not drawn)', 100),
  ('Cn1nc(C(F)(F)F)c(C[S+]([O-])c2cccc[n+]2[O-])c1OC(F)F (stereo not drawn)', 90),
  ('CC(Oc1c(C[S+]([O-])c2cccc[n+]2[O-])c(C(F)(F)F)nn1C)C(F)(F)F (stereo not drawn)', 0);

Query: Identify the reported Plant response rating, Dayflower for the following entry. Cn1nc(C(F)(F)F)c(C[S+]([O-])c2cccc[n+]2[O-])c1OCC(F)(F)F (racemic)
Reply: 100

Query: Give Plant response rating, Dayflower for Cc1cc[n+]([O-])c([S+]([O-])Cc2c(C(F)(F)F)nn(C)c2Cl)c1 (racemic)
Reply: 0

Query: Query Plant response rating, Dayflower for Cc1cc[n+]([O-])c([S+]([O-])Cc2c(C(F)(F)F)nn(C)c2OCC(F)(F)F)c1 (racemic)
Reply: 70

Query: Item Cc1cc[n+]([O-])c(S(=O)(=O)C(C)c2c(C(F)(F)F)nn(C)c2OC(F)F)c1 (stereo not drawn) : provide Plant response rating, Dayflower
Reply: 80

Query: Report Plant response rating, Dayflower for Cn1nc(C(F)(F)F)c(C[S+]([O-])c2ccc(Cl)c[n+]2[O-])c1OC(F)F (stereo not drawn)
Reply: 90

Query: Report Plant response rating, Dayflower for Cn1nc(C(F)(F)F)c(C[S+]([O-])c2cccc[n+]2[O-])c1Cl (stereo not drawn)
Reply: 0

Query: Give reported Plant response rating, Dayflower value for CC(c1c(C(F)(F)F)nn(C)c1OCC(F)(F)F)S(=O)(=O)c1cccc[n+]1[O-] (racemic)
Reply: 90

Query: Tell me Plant response rating, Dayflower reported for Cc1cc[n+]([O-])c(S(=O)(=O)C(Cl)c2c(C(F)(F)F)nn(C)c2OCC(F)(F)F)c1 (racemic)
Reply: 90
